Source: the supplement of paper PMC11417369

System: PfAP2-G AP2 domain (GST-tagged)
Assay: gcPBM binding intensity (ln(normalized median fluorescence intensity)); higher = stronger DNA binding
The full ranking holds about 25,000 sequences; the median of “ln(normalized median fluorescence intensity)” is about 10, and the highest 2% start at about 12. The sample as a whole holds a higher share of the highest values than the screen did.
Threshold check on gcPBM binding intensity (ln): at or above 10 gives Met, strictly below gives Not met.

The examples below pair each entry with its known result.
TTTCCTGGTCAAGGGGTTACGGTTACGTCCTCTTGC [CACACA_negctrl_site856] :: Met
ATATATATATATATATGTACACATATATGTGTTTGT [XGTACX_site62] :: Met
TACACAAAACATAAAAGTACATAATAATAAAGTTAA [XGTACX_site8872] :: Met
GAGGTCTTTTTTAATGTGCACATATATATATATATA :: Met
GTAAATAATAAACACCGTACATGGTATAATTCAATG [XGTACX_site3655] :: Met
TTGTTAATATGATAAAAGAGGAATATTCTCTTCCTA [GTGCAC_negctrl_site659] :: Not met
AAAAAAAAATTAAACATACACACGTTACTATTTTTA [CACACA_site1687] :: Not met

# evaluate next
Exercise: Hi, just wondering whether AAATAGTTAAAAAGGCGTACACATAAATAAATAAAT [XGTACX_site2096] shows gcPBM binding intensity (ln) of 10 or higher.
Key: Met

---

Tested on: PfAP2-G AP2 domain (GST-tagged)
Experiment: gcPBM binding intensity (ln(normalized median fluorescence intensity)); higher = stronger DNA binding
The full ranking holds about 25,000 sequences; the median of “ln(normalized median fluorescence intensity)” is about 10, and the highest 2% start at about 12. For the sample, the highest values were picked, then their nearest neighbours and some sequences at random.
Listed here are sequences together with their documented gcPBM binding intensity (ln).
No unit in the answer, only the number.

Please review the following examples before continuing.
TGTATAGTCTAAAGTTGTACAAAAAAAAAAAAAAAA [XGTACX_site5764] :: 11.3
AGAAAATATACAAAACGTACTTATATATTATATCTA [XGTACX_site3104] :: 10.9
CAAAAGTAAGCACGCACACACAACATGAAATAAACT [CACACA_site6223] :: 10.3
GTGTAGGCAAAAAGTTGTACGCCTAAAATCTATATA [XGTACX_site8912] :: 11.7
ATACATATATACATACGTACTTATATACATATGTGC [XGTACX_site5268] :: 10.9

Exercise: Recorded gcPBM binding intensity (ln) for TTGTATTATTAAATTATAAAACCTATAATTATGGAT [GTGCAC_negctrl_site340] , please?
Key: 9.68

Exercise: Quick one: TCCTAATGCTACCACACACACAAAAACAAATAATAA [CACACA_site2610]
Key: 10.5

Exercise: Same again, this time with AATGATTTTGATTAACGTACGTACAAATATATATAT [XGTACX_site6604]
Key: 11.5

Exercise: Proceed to AATCAAAAAAAATGTTGTACGCCTAATTATAATTAA [XGTACX_site8906]
Key: 11.6

Exercise: And then AAAATTAAAATACGTACACACCTTATCTTTTTGGCT [CACACA_site4311] , what is it?
Key: 11.7
